- System: MEG-01 human megakaryocyte leukemia cells
- PROTOCOL_SUMMARY: CellTiter-Glo cell viability assay, Bcr-Abl-positive cells
- CONDITION_PARAMETERS: MEG-01, 72 h, read-out: IC50 MEG-01
pIC50: −log10 of the molar value.
# reported pIC50; entries follow
MEASURED_ATTRIBUTE: pIC50

[[record]]
smiles_notation = "CNc1nc2cc(C#Cc3cc(C(=O)Nc4ccc(CN5CCN(C)CC5)c(C(F)(F)F)c4)ccc3C)ccn2n1"
measured_attribute = "pIC50"
meas_value = 8.75

[[record]]
smiles_notation = "Cc1ccc(C(=O)Nc2ccc(CN3CCN(C)CC3)c(C(F)(F)F)c2)cc1C#Cc1ccn2nc(N)nc2c1"
measured_attribute = "pIC50"
meas_value = 8.48

[[record]]
smiles_notation = "Cc1ccc(C(=O)Nc2ccc(CN3CCN(C)CC3)c(C(F)(F)F)c2)cc1C#Cc1cnc2[nH]ccc2n1"
measured_attribute = "pIC50"
meas_value = 8.86

